In this section, each of the compounds is paired with its reported Emax.
# test_target: human F508del CFTR (Homo sapiens, UniProt P13569, DEL508-508)
# Construct: expressed in transfected cells; host or cells: Fisher Rat Thyroid (FRT) cells
# Sequence (P13569 with tags, fused parts or gaps DEL508-508): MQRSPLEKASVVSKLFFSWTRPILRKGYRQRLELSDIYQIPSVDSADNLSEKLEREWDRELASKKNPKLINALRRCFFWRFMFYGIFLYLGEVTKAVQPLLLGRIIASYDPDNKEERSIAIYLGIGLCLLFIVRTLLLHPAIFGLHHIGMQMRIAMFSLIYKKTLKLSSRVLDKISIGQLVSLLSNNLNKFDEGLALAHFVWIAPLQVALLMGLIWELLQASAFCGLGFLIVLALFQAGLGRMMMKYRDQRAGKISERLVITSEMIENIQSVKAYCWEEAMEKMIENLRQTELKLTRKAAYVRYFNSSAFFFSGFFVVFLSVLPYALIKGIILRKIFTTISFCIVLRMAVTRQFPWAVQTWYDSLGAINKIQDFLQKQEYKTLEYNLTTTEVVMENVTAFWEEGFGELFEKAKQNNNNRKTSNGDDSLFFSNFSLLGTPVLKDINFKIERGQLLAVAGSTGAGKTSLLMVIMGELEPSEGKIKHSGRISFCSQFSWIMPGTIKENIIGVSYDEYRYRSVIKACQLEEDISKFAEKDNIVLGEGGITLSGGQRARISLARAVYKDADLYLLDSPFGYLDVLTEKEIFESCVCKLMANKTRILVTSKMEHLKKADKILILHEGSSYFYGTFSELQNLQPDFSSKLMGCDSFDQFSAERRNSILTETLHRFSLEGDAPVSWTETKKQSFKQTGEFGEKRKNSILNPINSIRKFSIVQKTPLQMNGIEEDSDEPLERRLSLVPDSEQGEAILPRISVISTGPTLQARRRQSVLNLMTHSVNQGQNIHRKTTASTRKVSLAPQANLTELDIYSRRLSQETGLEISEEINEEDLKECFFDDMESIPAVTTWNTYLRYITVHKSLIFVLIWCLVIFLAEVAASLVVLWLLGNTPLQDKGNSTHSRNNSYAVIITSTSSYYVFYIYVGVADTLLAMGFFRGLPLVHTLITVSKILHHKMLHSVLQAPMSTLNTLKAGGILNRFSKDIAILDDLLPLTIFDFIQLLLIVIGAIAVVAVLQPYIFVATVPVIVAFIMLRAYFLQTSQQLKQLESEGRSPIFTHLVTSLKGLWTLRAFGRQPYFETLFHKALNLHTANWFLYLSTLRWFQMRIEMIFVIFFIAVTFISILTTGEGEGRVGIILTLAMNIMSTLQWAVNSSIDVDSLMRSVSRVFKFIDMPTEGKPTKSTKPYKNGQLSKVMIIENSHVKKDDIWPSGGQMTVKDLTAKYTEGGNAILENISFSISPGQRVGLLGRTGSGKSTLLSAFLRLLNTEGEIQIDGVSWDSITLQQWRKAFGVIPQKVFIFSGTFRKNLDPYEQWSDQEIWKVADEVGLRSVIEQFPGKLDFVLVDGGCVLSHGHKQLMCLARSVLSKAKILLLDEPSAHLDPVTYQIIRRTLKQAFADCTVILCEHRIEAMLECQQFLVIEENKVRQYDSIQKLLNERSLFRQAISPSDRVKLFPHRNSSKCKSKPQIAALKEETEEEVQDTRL
# protocol: CFTR-YFP High Throughput Assay
# Format: cell-based
# measurement_context: EMax normalized to the positive control; FRT cells expressing human F508del CFTR and YFP; read-out: % Efficacy

Sample records with Emax:
INSERT INTO results (smiles_code, test_target, result) VALUES
  ('CCN(C(=O)c1nn(C[C@@H](O)CO)c(=O)c2c1c1ccccc1n2C)c1ccccc1', 'human F508del CFTR (Homo sapiens, UniProt P13569, DEL508-508)', '30 to 80%'),
  ('CCN(C(=O)Cn1ncc2c(c1=O)c1ccccc1n2Cc1ccc(C#N)c(F)c1)c1ccc2c(c1)OC(F)(F)O2', 'human F508del CFTR (Homo sapiens, UniProt P13569, DEL508-508)', '30 to 80%'),
  ('CCN(C(=O)Cn1nc(Cc2cccnc2)c2c(OC3CCCCC3)cccc2c1=O)c1ccc2c(c1)OC(F)(F)O2', 'human F508del CFTR (Homo sapiens, UniProt P13569, DEL508-508)', '30 to 80%'),
  ('CCN(C(=O)c1nn(-c2ccc(C)cc2)c(=O)c2c1c1c(C)cccc1n2C)c1ccccc1', 'human F508del CFTR (Homo sapiens, UniProt P13569, DEL508-508)', '> 80%');

Bench note: what Emax did CCOc1cc2c(=O)n(CC(=O)N(C)c3ccc4c(c3)OC(F)(F)O4)nc(-c3cccc(C#N)c3)c2cc1Cl show? > 80%

Bench note: what Emax did Cc1ccc(-n2nc(C(=O)N(CC#N)c3ccccc3)c3c4ccccc4n(C)c3c2=O)cc1 show? 30 to 80%

Bench note: what Emax did Cn1c2ccccc2c2c(-c3cccc(C#N)c3)nn(C3CCCCC3)c(=O)c21 show? 30 to 80%
